# study target: T1, in-line fusion protein of human IL-36R extracellular domain and IL1RAcP extracellular domain expressed with … (human; mouse, UniProt Q9HB29 20-337; Q9NPH3 21-359, limits assumed)
# T1 construct: not shown: mouse IgG2a Fc
# T1 sequence (looked up): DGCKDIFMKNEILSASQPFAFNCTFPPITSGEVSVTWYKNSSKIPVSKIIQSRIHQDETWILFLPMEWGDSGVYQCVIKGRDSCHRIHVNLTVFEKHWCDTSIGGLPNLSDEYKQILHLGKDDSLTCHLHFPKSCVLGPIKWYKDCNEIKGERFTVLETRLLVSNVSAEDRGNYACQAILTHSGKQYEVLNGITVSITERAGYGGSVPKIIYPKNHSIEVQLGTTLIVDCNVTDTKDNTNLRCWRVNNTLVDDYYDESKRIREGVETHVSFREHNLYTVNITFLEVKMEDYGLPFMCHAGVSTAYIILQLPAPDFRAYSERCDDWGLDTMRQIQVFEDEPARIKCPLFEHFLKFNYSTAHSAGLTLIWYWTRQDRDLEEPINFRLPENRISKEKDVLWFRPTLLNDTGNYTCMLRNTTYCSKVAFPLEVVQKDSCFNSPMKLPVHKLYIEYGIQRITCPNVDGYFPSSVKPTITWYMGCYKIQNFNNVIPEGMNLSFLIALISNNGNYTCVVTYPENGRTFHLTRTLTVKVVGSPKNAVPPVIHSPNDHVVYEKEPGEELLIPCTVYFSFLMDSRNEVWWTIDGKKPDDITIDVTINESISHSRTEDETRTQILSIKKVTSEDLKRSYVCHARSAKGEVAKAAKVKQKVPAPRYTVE
# method notes: SPR Biacore 4000, mAb captured on anti-hFc, 25C
measured endpoint: pKd
The read-out pKd is expressed as -log10 of concentration in moles per litre.

In the examples that follow, each entry is paired with its recorded pKd.
| binder | observed |
| --- | --- |
| H4H14758P (antibody, human IgG4 S228P, kappa, V domains shown, Fully human anti-IL-36R antibody) VH: EVQLVESGGGLVQPGRSLRLSCAASGFTFDDYAMHWVRQAPGKGLEWVSSVRWNGGIIGYADSVKGRFTISRDNAKNSLYLQMNSLRPEDTALYYCAKDIGDVLTGYYGEYGMDVWGQGTTVTVSS VL: DIQMTQSPSSLSASVGDRVTIACRASQSITTYLNWYQQKPGKAPKLLIYAASSLQSGVPSRFSGSGSGTDFTLTISSLQPEDFATYYCQQSYISPYTFGQGTKLEIKR | 9.38 |
| H4H14728P (antibody, human IgG4 S228P, kappa, V domains shown, Fully human anti-IL-36R antibody) VH: QVQLQESGPGLVKPSQTLSLTCTVSGGSISSADYYWSWIRQHPGKGLEWIGSIYYTGSTYYNPSLKSRLTISIDTSENQFSLKLTSLTAADTAVYYCASEEANWGSHFDSWGQGTLVTVSS VL: DIQMTQSPSSLSASVGDRVTITCRASQSIDNFLNWYQQKPGKAPKLLIYAASSLQSGVPSRFSGSGSGTDFTLTISSLQPEDFASYYCQHSHSAHPITFGQGTRLEIKR | 7.85 |

Looking up H4H14708P2 (antibody, human IgG4 S228P, kappa, V domains shown, Fully human anti-IL-36R antibody) VH: EVQLVESGGDLVQPGRSLRLSCAASGFTFDDYAMHWVRQAPGKGLEWVSVISWNSDVIAYSDSVKGRFTISRDNAKNSLYLQMNSLRTEDTALYYCTKGHKWSFFDYWGQGTLVTVSS VL: EIVLTQSPATLSLSPGERATLSCRASQSISSYLAWYQQKPGQAPRLLIFNVANRATDIPARFSGSGSGTDFTLTISSLEPEDFAVYYCQQRSNWPLTFGGGTKVEIKR , I see its pKd listed as 9.45

The reported numbers originate from patent US20200017592A1.
